Where do the numbers come from? From ChEMBL document CHEMBL4118175.

System: RBL-2H3
Assay: Cytotoxicity against rat RBL2H3 cells at 5 and 20 uM after 24 hrs by MTS assay
Assay type: cell-based
Settings: rbl-2h3, 24 h
REPORTED PROPERTY: Activity

molecule=C=CCc1ccc(O[C@@H]2O[C@H](CO[C@@H]3OC[C@@H](O)[C@H](O)[C@H]3O)[C@@H](O)[C@H](O)[C@H]2O)cc1 result=Non-Toxic
molecule=CC1=C2C3=CC[C@@H]4[C@@]5(C)CC[C@H](O[C@@H]6OC[C@H](O)[C@H](O)[C@H]6O)C(C)(C)[C@@H]5CC[C@@]4(C)[C@]3(C)CC[C@@]2(C(=O)O[C@@H]2O[C@H](CO)[C@@H](O)[C@H](O)[C@H]2O)CC[C@H]1C result=Non-Toxic
molecule=COc1cc2c(=O)oc3c(OC)c(OC)cc4c(=O)oc(c1O)c2c34 result=Toxic

* * *

Tested on: RAW264.7
Assay: Cytotoxicity against mouse RAW264.7 cells at 5 and 20 uM after 24 hrs by MTS assay
Assay type: cell-based
Conditions: raw264.7, 24 h
REPORTED PROPERTY: Activity

// solved cases for Activity follow
molecule=C=CCc1ccc(O[C@@H]2O[C@H](CO[C@@H]3OC[C@@H](O)[C@H](O)[C@H]3O)[C@@H](O)[C@H](O)[C@H]2O)cc1 result=Non-Toxic
molecule=COc1cc2c(=O)oc3c(OC)c(OC)cc4c(=O)oc(c1O)c2c34 result=Toxic
molecule="CC(CCCC(C)(C)O)CCO[C@@H]1O[C@H](CO[C@@H]2O[C@@H](CO)[C@H](O)[C@H]2O)[C@@H](O)[C@H](O)[C@H]1O (stereo partly specified)" result=Non-Toxic
molecule=C[C@@H]1CC[C@]2(C(=O)O)CC[C@]3(C)C(=CC[C@@H]4[C@@]5(C)CC[C@H](O[C@@H]6OC[C@H](O)[C@H](O)[C@H]6O)C(C)(C)[C@@H]5CC[C@]43C)[C@@H]2[C@]1(C)O result=Non-Toxic
molecule=CC1=C2C3=CC[C@@H]4[C@@]5(C)CC[C@H](O[C@@H]6OC[C@H](O)[C@H](O)[C@H]6O)C(C)(C)[C@@H]5CC[C@@]4(C)[C@]3(C)CC[C@@]2(C(=O)O[C@@H]2O[C@H](CO)[C@@H](O)[C@H](O)[C@H]2O)CC[C@H]1C result=Non-Toxic

Turning now to a further record.
Prompt: Returns the measured Activity for the input molecule. Input: C[C@@H]1CC[C@]2(C(=O)O[C@@H]3O[C@H](CO)[C@@H](O)[C@H](O)[C@H]3O)CC[C@]3(C)C(=CC[C@@H]4[C@@]5(C)C[C@@H](O)[C@@H](O)C(C)(C)[C@@H]5CC[C@]43C)[C@@H]2[C@]1(C)O
Completion: Non-Toxic
